EXPERIMENTAL_SYSTEM: TRPC4 (Homo sapiens, UniProt Q9UBN4)
Construct: expressed in transfected cells; host or cells: HEK-TREx (HekTrex-293), cell line ICLN-1694, tetracycline-induced
Sequence (Q9UBN4 1-982 isoform Q9UBN4-5): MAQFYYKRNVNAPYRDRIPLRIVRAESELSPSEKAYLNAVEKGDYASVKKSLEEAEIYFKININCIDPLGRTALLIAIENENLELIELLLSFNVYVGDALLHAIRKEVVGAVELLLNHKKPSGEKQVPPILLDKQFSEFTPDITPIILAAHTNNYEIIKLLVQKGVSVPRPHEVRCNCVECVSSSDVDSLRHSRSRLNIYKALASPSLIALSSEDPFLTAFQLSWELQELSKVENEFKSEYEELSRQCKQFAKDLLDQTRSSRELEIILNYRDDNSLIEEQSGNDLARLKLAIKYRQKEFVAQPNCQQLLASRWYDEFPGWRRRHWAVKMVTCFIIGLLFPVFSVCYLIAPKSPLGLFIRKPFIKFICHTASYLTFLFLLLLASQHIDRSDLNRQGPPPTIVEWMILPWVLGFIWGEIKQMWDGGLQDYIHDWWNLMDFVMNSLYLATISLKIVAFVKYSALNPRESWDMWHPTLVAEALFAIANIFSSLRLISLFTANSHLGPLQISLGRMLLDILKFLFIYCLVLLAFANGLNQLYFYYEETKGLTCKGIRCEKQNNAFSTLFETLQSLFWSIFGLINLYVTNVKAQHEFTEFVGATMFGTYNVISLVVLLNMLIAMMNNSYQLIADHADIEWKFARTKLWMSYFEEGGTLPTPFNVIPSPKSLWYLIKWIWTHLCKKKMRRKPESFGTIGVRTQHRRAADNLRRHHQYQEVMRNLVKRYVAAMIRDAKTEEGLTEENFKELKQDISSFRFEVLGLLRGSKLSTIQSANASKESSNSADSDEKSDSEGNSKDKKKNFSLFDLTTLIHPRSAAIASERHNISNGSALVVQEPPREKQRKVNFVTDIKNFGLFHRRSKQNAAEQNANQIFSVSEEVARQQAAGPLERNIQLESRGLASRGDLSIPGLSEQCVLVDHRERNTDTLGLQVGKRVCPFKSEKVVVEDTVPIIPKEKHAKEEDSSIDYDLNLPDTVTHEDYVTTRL
ASSAY_SUMMARY: TRPC4 FLIPR Assay (HEK-TREx hTRPC4, Englerin A stimulation)
Type: cell-based
CONDITION_INFO: Table 8; HEK-TREx hTRPC4; read-out: TRPC4 FLIPR IC50
pIC50: −log10 of the molar value.
OBSERVATION_TYPE: pIC50

COMPOUND | pIC50
C[C@@H](c1ccccc1C(F)(F)F)n1nnc2c1CCN(c1cn[nH]c(=O)c1C#N)C2 | 6.00 to 11.00
NC(=O)c1nc2c(n1Cc1ccccc1C(F)(F)F)CCN(c1cn[nH]c(=O)c1Cl)C2 [drawing 997] | 6.00 to 11.00
Cc1ccccc1CN1C[C@@H](C)N(c2cn[nH]c(=O)c2Cl)CC1=O | 5.00 to 5.30

// pIC50 value for O=c1[nH]ncc(N2CCN(Cc3ccccc3Cl)CC2)c1Cl [drawing 1010] : 5.30 to 6.00

// pIC50 value for `O=C1CN(c2cn[nH]c(=O)c2Cl)CCN1Cc1ccccc1C(F)F` : 6.00 to 11.00

// pIC50 value for C[C@@H](c1ccccc1Cl)n1nnc2c1CCN(c1cn[nH]c(=O)c1Cl)C2 [drawing 1001] : 6.00 to 11.00

// pIC50 value for Cc1ncccc1CN1CCN(c2cn[nH]c(=O)c2Cl)CC1 [drawing 1017] : 5.30 to 6.00

// pIC50 value for Cc1ccccc1CN1CCN(c2cn[nH]c(=O)c2Cl)CC1=O [drawing 1008] : 6.00 to 11.00

// pIC50 value for O=c1[nH]ncc(N2CCc3c(ncn3Cc3ccc(F)cc3Cl)C2)c1Cl [drawing 998] : 6.00 to 11.00
